- targetUnderTest: MyD88^TIR (Homo sapiens, UniProt Q99836)
- Construct: MyD88 (residues 148–296); 6xHis; made in house; host or cells: E. coli BL21 (DE3)
- Sequence (Q99836 148-296): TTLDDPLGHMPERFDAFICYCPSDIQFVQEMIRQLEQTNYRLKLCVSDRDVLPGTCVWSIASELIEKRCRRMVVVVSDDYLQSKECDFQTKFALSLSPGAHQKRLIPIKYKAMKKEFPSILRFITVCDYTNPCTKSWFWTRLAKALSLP
- assayInfo: T‐Surf phage library (P8 and P3) selection against MyD88^TIR, four rounds, NGS read counts
- Assay type: binding
- experimentalContext: P8_MyD88: rank by NGS read count before grouping
Here, each record is paired with measured Rank (before) data.
Form rule: numeric answer, no unit written next to it.

For orientation, consider the following solved cases.
sequenceRecord | Rank (before)
LGYHWIDWEYYVGIEN | 3275
YLRRSVFQTMLARRTE | 2077
DPQDLDWFSERLVILF | 2747
LGYDWIVWAYFVGIED | 3219

Q) Answer briefly: Rank (before) recorded on MyD88^TIR (Homo sapiens, UniProt Q99836) for DWVWVYRLPNLEGPAG
A) 2403

Q) Answer briefly: Rank (before) recorded on MyD88^TIR (Homo sapiens, UniProt Q99836) for DWGWDYLLPQLEGSAG
A) 2482

Q) Answer briefly: Rank (before) recorded on MyD88^TIR (Homo sapiens, UniProt Q99836) for YITWFDDIQQIQVFWV
A) 2116

###

Here, each record is paired with measured Population data.
- targetUnderTest: MyD88^TIR (Homo sapiens, UniProt Q99836)
- Construct: MyD88 (residues 148–296); 6xHis; made in house; host or cells: E. coli BL21 (DE3)
- assayInfo: T‐Surf phage library (P8 and P3) selection against MyD88^TIR, four rounds, NGS read counts
- Type: binding
- experimentalContext: P8_MyD88 pool: P8 T-Surf phage library, 4th round of selection against MyD88 TIR, share of NGS reads
The reply should be a number in %, with the unit left off.

For orientation, consider the following solved cases.
sequenceRecord | targetUnderTest | assayReadout | quantitativeResult
ELDFSHFWLFDAGGEA | MyD88^TIR (Homo sapiens, UniProt Q99836) | Population | 0.0154
WALNELLQILHARELF | MyD88^TIR (Homo sapiens, UniProt Q99836) | Population | 0.00617
ELDFSHFWLFEARGDA | MyD88^TIR (Homo sapiens, UniProt Q99836) | Population | 0.0224
LTDVANILGYHWIDWE | MyD88^TIR (Homo sapiens, UniProt Q99836) | Population | 0.02
WWIQALAEVANMAGED | MyD88^TIR (Homo sapiens, UniProt Q99836) | Population | 0.00925
SFSFPLDQLSYFLNLP | MyD88^TIR (Homo sapiens, UniProt Q99836) | Population | 0.0112
EIARQLLSEYLNIAVY | MyD88^TIR (Homo sapiens, UniProt Q99836) | Population | 0.0116
NLSGWHILDGFLFDEF | MyD88^TIR (Homo sapiens, UniProt Q99836) | Population | 0.0131
DPQDLEWFYERLVSLL | MyD88^TIR (Homo sapiens, UniProt Q99836) | Population | 0.0224
ELDFSHFWLFDGQAGGEA | MyD88^TIR (Homo sapiens, UniProt Q99836) | Population | 0.00771

Q) Answer briefly: Population recorded on MyD88^TIR (Homo sapiens, UniProt Q99836) for WALDELLRILY
A) 0.01

###

- targetUnderTest: MyD88^TIR (Homo sapiens, UniProt Q99836)
- Construct: MyD88 (residues 148–296); 6xHis; made in house; host or cells: E. coli BL21 (DE3)
- assayInfo: T‐Surf phage library (P8 and P3) selection against MyD88^TIR, four rounds, NGS read counts
- Assay type: binding
- experimentalContext: P8 library, selection against MyD88, rank by count before grouping
Hi! Just check whether P8_MyD88 Rank (before) is below 3000. Below gives 1, equal or above gives 0.

sequenceRecord | classLabel
WALVELLHIRHARELF | 1
YYFTIGIAKRKLSRK | 1
WDFAGNWEQFWDRLSY | 1
SGQAVTEDKLGWLSNP | 1
RFGGDTFLEYLVLISM | 0

Q) Input DPQVRVWFYERLVSLF ; condition: P8_MyD88 Rank (before) strictly below 3000. Does it hold?
A) 1

Q) Input DWGWGYLLPNLEGPAG ; condition: P8_MyD88 Rank (before) strictly below 3000. Does it hold?
A) 1

Q) Input LGYQWIDWEFFVGIED ; condition: P8_MyD88 Rank (before) strictly below 3000. Does it hold?
A) 0

Q) Input YPQELVLFYELLGSLV ; condition: P8_MyD88 Rank (before) strictly below 3000. Does it hold?
A) 1

Q) Input WALDELLQILRARDLF ; condition: P8_MyD88 Rank (before) strictly below 3000. Does it hold?
A) 1

Q) Input STTYLQWGDNWFWDKL ; condition: P8_MyD88 Rank (before) strictly below 3000. Does it hold?
A) 0

Q) Input YLRADDSCSWEKLRYA ; condition: P8_MyD88 Rank (before) strictly below 3000. Does it hold?
A) 1

###

- targetUnderTest: MyD88^TIR (Homo sapiens)
- Construct: MyD88 (residues 148–296); 6xHis; made in house; host or cells: E. coli BL21 (DE3)
- assayInfo: T‐Surf phage library (P8 and P3) selection against MyD88^TIR, four rounds, NGS read counts
- Type: binding
- experimentalContext: P8 library, 4R selection against MyD88, rank before grouping
Here, each record is paired with measured P8_MyD88 Rank (before) data.
Form rule: numeric answer, no unit written next to it.

sequenceRecord | quantitativeResult
LEANDSLFWDRLIRMIE | 3374
DPQEQVGICVRLMEAL | 3020
MVGGDTFHDFLDIISM | 3677

With those in mind, consider the next sequence.
Q) Read off the recorded P8_MyD88 Rank (before) for DWVWVYLLPNLEGPEG
A) 2402

###

- targetUnderTest: MyD88^TIR (Homo sapiens)
- Construct: MyD88 (residues 148–296); 6xHis; made in house; host or cells: E. coli BL21 (DE3)
- assayInfo: T‐Surf phage library (P8 and P3) selection against MyD88^TIR, four rounds, NGS read counts
- Type: binding
- experimentalContext: P8 library, 4R selection against MyD88, rank after grouping
assayReadout: P8_MyD88 Rank (after)
Form rule: numeric answer, no unit written next to it.

For orientation, consider the following solved cases.
sequenceRecord | quantitativeResult
DPQVLDWYYERLVRLF | 626
NYGSSSWALEELAHIIE | 665
WALDELLQILHAKETM | 598
DPQVLEWIYARLFSQM | 649
QLIQQWIELHLHQLH | 588
WALDELWHILRALGLF | 631
DPQDLAWVYERLVSPV | 628
DPQDQEWLYERLFSQM | 619
MFGGDTFMIFWILLA | 593

With those in mind, consider the next sequence.
Q) Read off the recorded P8_MyD88 Rank (after) for IVQEQDGFWVRLIEAL
A) 616

###

- targetUnderTest: MAL^TIR (Homo sapiens)
- Construct: MAL (residues 79–221); 6xHis; made in house; host or cells: E. coli BL21 (DE3)
- assayInfo: T‐Surf phage library (P8 and P3) selection against MAL^TIR, four rounds, NGS read counts
- Type: binding
- experimentalContext: P3 library, selection against MAL, rank after grouping
Here, each record is paired with measured P3_MAL Rank (after) data.

For orientation, consider the following solved cases.
sequenceRecord | result
RGFLSHRRYHLQAKDH | 539
ALHNAFWDRLWTKLAP | 544
RSLRERLWRLLALSKK | 577
NQWRNELTAAANLNGW | 508

Q) Read off the recorded P3_MAL Rank (after) for KERLHQWKLALTQAA
A) 526

Q) Read off the recorded P3_MAL Rank (after) for YAFTGHLRRYLVLRGV
A) 509

###

- targetUnderTest: MAL^TIR (Homo sapiens, UniProt P58753)
- Construct: MAL (residues 79–221); 6xHis; made in house; host or cells: E. coli BL21 (DE3)
- Sequence (P58753 79-221): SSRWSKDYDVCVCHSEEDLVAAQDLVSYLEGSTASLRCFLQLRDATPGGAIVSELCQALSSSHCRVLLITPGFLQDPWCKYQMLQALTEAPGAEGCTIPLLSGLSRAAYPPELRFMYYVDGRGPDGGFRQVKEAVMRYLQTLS
- assayInfo: T‐Surf phage library (P8 and P3) selection against MAL^TIR, four rounds, NGS read counts
- Format: binding
- experimentalContext: P3_MAL: rank by count before grouping
Rule: Rank (before) of 2000 or more gives y; anything lower gives n.

sequenceRecord | classLabel
YAFTGHLRHHLQAKDH | n
YAFTGHLHRYLVQRA | n

Q) Could you verify whether the entry EWIREGLWRLLELSKK shows Rank (before) of no less than 2000?
A) n

###

- targetUnderTest: MyD88^TIR (Homo sapiens)
- Construct: MyD88 (residues 148–296); 6xHis; made in house; host or cells: E. coli BL21 (DE3)
- assayInfo: T‐Surf phage library (P8 and P3) selection against MyD88^TIR, four rounds, NGS read counts
- Type: binding
- experimentalContext: P8 library, selection against MyD88, rank before grouping
assayReadout: P8_MyD88 Rank (before)
Form rule: numeric answer, no unit written next to it.

For orientation, consider the following solved cases.
sequenceRecord | targetUnderTest | P8_MyD88 Rank (before)
LGYRLMFWDYFVGIVD | MyD88^TIR (Homo sapiens) | 3225
YASCDDFDYYLETAVLLRHL | MyD88^TIR (Homo sapiens) | 1770
YAASPRLFGEPVKIVG | MyD88^TIR (Homo sapiens) | 1755
LGYPWIDWEYYVGIED | MyD88^TIR (Homo sapiens) | 3226
DLVCDYLLPNLEGAAG | MyD88^TIR (Homo sapiens) | 2385
DPQDREWCYERLVSLL | MyD88^TIR (Homo sapiens) | 2958

With those in mind, consider the next sequence.
Q) Read off the recorded P8_MyD88 Rank (before) for YLLLNVFQIIFARGPE
A) 2018
